B1: ESRRA (parent)
chain: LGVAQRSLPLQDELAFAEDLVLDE

# Variants of: B1
# experiment_description: protein stability index of a GFP-peptide fusion (GPS, HEK-293T) (PSI 1-6); higher = more stable;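 note: lentivirally expressed fusions sorted by FACS into six bins by GFP to DsRed ratio, PSI derived from sequencing read proportions per bin multiplied by bin number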
# measurement_context: c terminus: a fixed tail appended
Label scheme for protein stability index: lower than 3 is -1, 3 and above is 1.

For orientation, consider the following solved cases.
Q11P: 1
L14R: 1
Q5V: -1
L14I: 1
L10T: 1

Exam item: Reported protein stability index reaches at least 3 for "D19W" ?
Marked response: -1

Exam item: Reported protein stability index reaches at least 3 for "E24I" ?
Marked response: 1

Exam item: Reported protein stability index reaches at least 3 for "E24T" ?
Marked response: 1

Exam item: Reported protein stability index reaches at least 3 for "D23R" ?
Marked response: -1

Exam item: Reported protein stability index reaches at least 3 for "A15H" ?
Marked response: 1
